system: OVCAR-3; test: NCI tumour cell line growth inhibition, 48 h
Calls of active or inactive are those of the source. Cut-off read from the data, not from the text of the source: active = GI50 up to about 1.1 µM and inactive = higher. Residues, ends and D or L forms follow the SMILES beside them. Groups on a side chain read outwards from the residue. *: point of attachment. Cbz = O=C(OCc1ccccc1)*; Boc = CC(C)(C)OC(=O)*; OBn = c1ccc(CO*)cc1
// allowed return values: y (active), n (inactive)

Identify the outcome logged in this assay for the molecule shown: O=C(OC1CN2CCC1CC2)N(c1ccccc1)c1ccccc1 (centres undefined)
n

Test call, this molecule: `CC(C)N(/C(F)=N\C(=O)Nc1ccccc1C(F)(F)F)C(C)C`
n

How was `Cn1c(COC(=O)Nc2ccccc2)c(COC(=O)Nc2ccccc2)c2ccc3cc(Cl)c(Cl)cc3c21` classified in this test?
n

Which outcome did this test record for the molecule `Cc1cc(/C=C/c2cc[n+](C)c3ccccc23)c(O)c2ncccc12` ?
y

Identify the outcome logged in this assay for the molecule shown: CCCCCCCCCCCCCCCC(=O)OCC(COP(=O)(O)OCCNC(=O)CCSSc1ccccn1)OC(=O)CCCCCCCCCCCCCCC (centres undefined)
n

Please let me know the test result on file for `CCOc1ccc(/N=C/c2c3ccccc3nc3ccccc23)cc1` .
n

Can you look up the reported call for CC(C)C(NC(=O)C(Cc1ccccc1)NC(=O)OC(C)(C)C)C(=O)NCC(=O)OCc1ccccc1 (stereo not drawn) (Boc-Phe-Val-Gly-OBn; configuration not given here) for me?
n

Recorded test outcome, item `CC[C@@H]1CC[C@@H]2[C@H](CC[C@]3(C)[C@@H](O)CC[C@@H]23)[C@H]1C(=O)O`
n

Please share the test call associated with COC1OC(C)C(OCc2ccccc2)C(OS(=O)(=O)c2ccc(C)cc2)C1OS(=O)(=O)c1ccc(C)cc1 (centres undefined) .
n

Hey, what did the test say about `c1ccc(COc2cccc3cccnc23)cc1` ?
n

So what was the verdict on `COc1ccccc1CC(=O)C(O)(C(F)(F)F)C(F)(F)F` in this test?
n

GET /call?item= `COc1ccc(OC)c(CC(=O)c2ccc(O)c(C(=O)NCCc3ccc(F)cc3)c2)c1` returns the recorded outcome of this test.
n

I would be grateful if you could indicate the recorded call for `O=C(n1c(=O)n(-c2ccc([N+](=O)[O-])cc2)c(=O)n1C(=O)C(Cl)(Cl)Cl)C(Cl)(Cl)Cl` .
n

What did this assay record as the result for O=C1c2ccccc2C(O)(O)C1(O)C1(O)C(=O)c2ccccc2C1(O)O (centres undefined) ?
n

Dear colleague, could you share the recorded outcome for `CN(C)CCSc1nccc(-c2ccc(-c3ccnc(SCCN(C)C)n3)s2)n1` when you have a moment?
n

Recorded test outcome, item Cc1cc(Cl)cc2c1NC(=O)C2(O)CC(=O)c1ccc(F)cc1 (centres undefined)
n

Per the records of this test, what outcome belongs to `CC1=CC(C)(C)Nc2ccc(CSc3ccccc3)cc21` ?
n

Field: outcome | Entry: CN(C)CC1CCC/C(=C\c2ccc(OC(=O)/C=C/c3ccccc3)cc2)C1=O (centres undefined)
n

Called result for `N#Cc1sc2c(c1OC(=O)c1ccc(Cl)cc1Cl)c(=O)n(-c1ccccc1)c(=S)n2-c1ccccc1`
n

Status in this test for `CN(C)C/C=C(/c1ccc(Br)cc1)c1cccnc1` ?
n

Give the logged outcome of this assay for the following molecule: CCCC/C=C1\CCC(C)(CN(C)C)C1=O (centres undefined)
n

What did the test return for `O=C(Nn1c(-c2cccs2)nc2ccc(I)cc2c1=O)c1ccccc1` ?
n

Please indicate how the test categorized CC(C)CC(NC(=O)OCc1ccccc1)C(=O)NCCCCC(NC(=O)C(CCCCNC(=O)C(CC(C)C)NC(=O)OCc1ccccc1)NC(=O)C(CCCCNC(=O)C(CC(C)C)NC(=O)OCc1ccccc1)NC(=O)C(CCCCNC(=O)C(CC(C)C)NC(=O)OCc1ccccc1)NC(=O)OC(C)(C)C)C(=O)O (centres undefined) (Boc-K([Leu-Cbz])K([Leu-Cbz])K([Leu-Cbz])K([Leu-Cbz])-OH; configuration not given here) .
n

Identify the outcome logged in this assay for the molecule shown: `CCOC(=O)C(Cc1ccc2c(c1)CCC2)Cc1ccc2c(c1)CCC2`
n

Hey, what did the test say about `CC(C)(C)OC(=O)n1c(-c2ccccc2F)cc(=O)c2cc3c(cc21)OCO3` ?
y

Call for entry `C1CCC2(CC1)O[C@@H]1[C@@H](O2)[C@@H](O[C@H]2O[C@@H]3COC4(CCCCC4)O[C@H]3[C@@H]3OC4(CCCCC4)O[C@@H]23)O[C@@H]2COC3(CCCCC3)O[C@@H]12` :
n

Test call, this molecule: `O=C1/C(=C/c2ccccc2Cl)COc2ccc(Br)cc21`
n

Returns: the outcome recorded for `Cc1cc(C)c(S(=O)(=O)N2CCCN(S(=O)(=O)c3c(C)cc(C)cc3C)OCCCON(S(=O)(=O)c3c(C)cc(C)cc3C)CCCN(S(=O)(=O)c3c(C)cc(C)cc3C)OCCCO2)c(C)c1` in this assay.
n

What did the test return for CCCCCCCCCCCCCC(=O)OCC1OC(n2cc(F)c(=O)[nH]c2=O)C(N)C(OC(=O)CCCCCCCCCCCCC)C1O (centres undefined) ?
n

Any idea what this test logged for `CO[C@@H](c1ccccc1)[C@H](O)[C@@](O)(c1ccccc1)P(=O)(OC)OC` ?
n

Outcome? `O=C(Nc1c(O)[nH]c(=S)[nH]c1=O)c1ccccc1F`
n

Which result was noted for this molecule in the test: `Cc1ccc(C(=O)/C=C2\Nc3ccccc3SC2=O)c(C)c1`
n

Give the logged outcome of this assay for the following molecule: `Cc1cc(C)c([S@@](=O)O[C@@H]2[C@H]3OC(C)(C)O[C@H]3O[C@@H]2[C@H]2COC(C)(C)O2)c(C)c1`
n

Could you please tell me the result logged for `Cc1ccc(N(C=O)c2c([N+](=O)[O-])cc([N+](=O)[O-])c3c2=[N+]([O-])CN=3)cc1` in this assay?
n

====

test system: HOP-62; experiment: NCI tumour cell line growth inhibition, 48 h
Calls of active or inactive are those of the source. No stated cut-off is given here; in the data, active = GI50 up to about 1.1 µM and inactive = higher.
Your response should consist of one outcome taken from TRUE = active, FALSE = inactive

Can you look up the reported call for `C[C@@H]1OC(=O)C[C@H]2CC(=O)N(CCc3cn(S(=O)(=O)C(F)(F)F)c4ccccc34)C[C@@H]21` for me?
FALSE

Lab log entry: CCCCCCCC(CC(=O)NC(CO)C(=O)NC(CO)CC(C)C)OC(=O)CC(CCCCCCC)OC(=O)CC(CCCCCCC)OC1OC(C)C(O)C(OC2OC(C)C(O)C(O)C2OC(C)=O)C1O (stereo not given) — outcome as called in the assay?
FALSE

Write down the call the test reported for this compound. Item: `COc1cc(C=C(c2ccc(N(C)C)cc2)c2ccc(N(C)C)cc2)c2ccccc2c1OC`
FALSE

What did the test return for `C=C(C)[C@H]1Cc2c(ccc3c2O[C@@H]2COc4cc(OC)c(OC)cc4[C@@H]2C3=O)O1` ?
TRUE

Answer briefly: the call reported for CCOc1ccc2c(c1)NC(=O)C(C1OC(c3ccccc3)=CC1=O)S2 (stereo not given) in this assay.
FALSE

Per the records of this test, what outcome belongs to CO/C(=N/N1CC1C(F)(F)F)c1ccncc1 (stereo not given) ?
FALSE

Hi, sorry to bother you, what did the test record for COc1ccc(OC)c(N2C(=O)/C(=C\c3ccccc3)SC2c2cc(OC)c(OC)c(OC)c2)c1 (stereo not given) ?
FALSE

GET /call?item= `Cc1ccc(C(=O)/C=C2\Nc3ccccc3SC2=O)c(C)c1` returns the recorded outcome of this test.
FALSE

Please share the test call associated with `CCCCOC(=O)NC(Nc1cccc(C(F)(F)F)c1)(C(F)(F)F)C(F)(F)F` .
FALSE

What outcome does the record of this test show for NC1(C(=O)O)CCc2ccc(N(CCCl)CCCl)cc2C1 (stereo not given) ?
FALSE

====

test system: PC-3; assay: NCI tumour cell line growth inhibition, 48 h
Calls of active or inactive are those of the source. Rule as the data show it: active = GI50 up to about 1.1 µM and inactive = higher.
recorded_endpoint: GI50

# input molecule: `O=C1Sc2cc3ccccc3cc2C(=O)Sc2ccc(Br)cc21` ; wanted: its GI50
3.43 µM (inactive)

Endpoint output: GI50 of N#Cc1cnc(N)nc1NCC1(CO)CC(CCc2ccccc2)C1 (centres undefined) . Value?
> 91.2 µM (inactive)

Name the reported GI50 value associated with the molecule CSC1NC(c2ccccc2)=C(C#N)C(=O)N1C1OCC(OC(C)=O)C(OC(C)=O)C1OC(C)=O (centres undefined)
> 100 µM (inactive)

Would you mind telling me what GI50 value was observed for `N#CC(=N)c1ncn(-c2ccc(N)cc2)c1N` ?
> 100 µM (inactive)

Bench note: what GI50 did CN1CCc2c3n(c4cc(Br)ccc24)[C@H](O)CCCC31 (some centres undefined) show?
5.89 µM (inactive)

So what's the measured GI50 for this one? `N=C(N)N/N=C/c1c(-c2ccc(Cl)c(Cl)c2Cl)nc2sccn12`
2.72 µM (inactive)

I'd like to know its GI50. The molecule in question is Cc1ccc([N+](=O)[O-])cc1S(=O)(=O)Nc1ccc(C2=NNC(c3cccs3)C2)cc1 (centres undefined)
33.3 µM (inactive)

Record request: GI50 value, item `CNC(=S)NNc1ncnc2c1c(-c1ccc(Cl)cc1)cn2-c1ccc(C)cc1`
5.45 µM (inactive)

Name the reported GI50 value associated with the molecule CCCCCCCC(CC(=O)NC(CO)C(=O)NC(CO)CC(C)C)OC(=O)CC(CCCCCCC)OC(=O)CC(CCCCCCC)OC1OC(C)C(O)C(OC2OC(C)C(O)C(O)C2OC(C)=O)C1O (centres undefined)
4.06 µM (inactive)
